target: D2 dopamine receptors (Rattus norvegicus); construct: Striatal samples from the brains of male Charles River CD rats; from tissue; host or cells: striatum of male Charles River CD rats (washed membrane pellet); experiment: D2 dopamine receptor binding: inhibition of tritiated (S)-sulpiride binding, rat striatal samples; design: species or system rat (male Charles River CD rats); conditions: rat striatum, tritiated (S)-sulpiride, pH 7.7, 4° C., 40 minutes; > = from highest concentration which displaced ≤50% of the ligand; read-out: Ki for D2 binding
pKi: −log10 of the molar value.
Endpoint Name: pKi

Some solved entries appear below for comparison.
>>> value_measured("CN1CCc2cc(Cl)c(O)cc2C1C1(c2ccccc2)CCC1 (stereo not shown) [Example 52]")
5.27
>>> value_measured("COc1cc2c(cc1O)C(C1(c3ccccc3Cl)CCC1)N(C)CC2 (stereo not shown) [Example 69]")
5.24
>>> value_measured("CN1CCc2cc(Cl)c(O)cc2C1C1(c2ccccc2Br)CCC1 (stereo not shown)")
4.74
>>> value_measured("COc1cc2c(cc1O)C(C1(c3ccccc3Cl)CC1)N(C)CC2 (single isomer, unassigned; (+)) [Example 77]")
6.05
>>> value_measured("CN1CCc2cc(F)c(O)cc2C1C1(c2ccc(Cl)cc2Cl)CC1 (stereo not shown)")
6.48
>>> value_measured("CN1CCc2cc(F)c(O)cc2C1C1(c2ccccc2Cl)CC1 (stereo not shown) [Example 63]")
5.80
>>> value_measured("CN1CCc2cc(O)c(O)cc2C1C1(c2ccc(Cl)cc2Cl)CCC1 (stereo not shown)")
5.92
>>> value_measured("CN1CCc2cc(F)c(O)cc2C1C1(c2ccc(Cl)cc2)CCC1 (stereo not shown)")
4.49
>>> value_measured("COc1cc2c(cc1O)C(C1(c3cccc4c3OCC4)CC1)N(C)CC2 (stereo not shown)")
5.31
>>> value_measured("CN1CCc2cc(O)c(O)cc2C1C1(c2ccccc2F)CCC1 (stereo not shown)")
5.54

(I) COc1cc2c(cc1O)C(C1(c3ccccc3OC)CC1)N(C)CC2 (stereo not shown)
(II) COc1cccc(C2(C3c4cc(O)c(OC)cc4CCN3C)CCC2)c1 (stereo not shown)
Ask | For the pair I and II , which entry has the numerically smaller recorded pKi? When you have decided, please share the label of that item.
Reply | I

* * *

biological target: D2 dopamine receptors (Rattus norvegicus, UniProt P61169); construct: Striatal samples from the brains of male Charles River CD rats; from tissue; host or cells: striatum of male Charles River CD rats (washed membrane pellet); assay: D2 dopamine receptor binding: inhibition of tritiated (S)-sulpiride binding, rat striatal samples; design: species or system rat (male Charles River CD rats); conditions: estimated from single concentration data by Langmuir adsorption isotherm equation; rat striatum, tritiated (S)-sulpiride; read-out: Ki for D2 binding (marked E)
Sequence (P61169 whole entry): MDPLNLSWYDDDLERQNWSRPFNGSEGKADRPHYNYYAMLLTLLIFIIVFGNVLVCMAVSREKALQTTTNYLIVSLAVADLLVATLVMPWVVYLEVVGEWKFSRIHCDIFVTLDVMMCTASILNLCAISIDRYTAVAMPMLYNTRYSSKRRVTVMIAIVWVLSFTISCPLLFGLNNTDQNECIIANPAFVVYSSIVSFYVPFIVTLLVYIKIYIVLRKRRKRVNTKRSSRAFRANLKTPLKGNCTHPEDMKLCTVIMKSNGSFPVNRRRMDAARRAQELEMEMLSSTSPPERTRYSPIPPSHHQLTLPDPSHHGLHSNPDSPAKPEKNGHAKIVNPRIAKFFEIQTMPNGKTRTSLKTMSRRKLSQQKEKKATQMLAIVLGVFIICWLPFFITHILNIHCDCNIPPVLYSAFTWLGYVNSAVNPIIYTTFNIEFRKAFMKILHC
Endpoint Name: Ki (µM)

Examples with their reported Ki follow.
>>> value_measured("CN1CCc2cc(O)c(O)cc2C1C1(c2ccc(O)cc2)CCCC1 (stereo not shown)")
7
>>> value_measured("CN1CCc2cc(O)c(O)cc2C1C1(c2ccccc2)CCCCC1 (stereo not shown)")
7
>>> value_measured("CN1CCc2cc(O)c(O)cc2C1C1(c2ccccc2C#N)CCC1 (stereo not shown)")
6.6
>>> value_measured("CN1CCc2c(O)cccc2C1C1(c2ccc(Cl)cc2)CCC1 (stereo not shown)")
7

(P) COc1cc2c(cc1O)C(C1(c3ccccc3)CCCC1)N(C)CC2 (stereo not shown)
(Q) C=CCN1CCc2cc(O)c(O)cc2C1C1(c2ccc(Cl)cc2)CCC1 (stereo not shown)
(R) CN1CCc2cc(O)c(Cl)cc2C1C1(c2ccccc2)CCC1 (stereo not shown)
Ask | Order the records so the highest Ki appears first and the lowest last. Record the ranking as a list of labels in the requested order.
Reply | R, Q, P
(R: 11 µM, Q: 7 µM, P: 3 µM)

Data origin: patent US5519034A
